Dear all, I have gathered published IC50 values for F1F0-ATPase (Bos taurus, UniProt P13621); the list follows.
Measured parameter: IC50

{"columns": ["Compound", "System under test", "Measured result"],
 "data": [
  ["O=C(/N=C(/NCC1CCO1)Nc1cc(-c2ccc(F)cc2)n[nH]1)c1ccc(F)c(F)c1 (stereo not shown)", "F1F0-ATPase (Bos taurus, UniProt P13621)", "< 10 µM"],
  ["CC(N/C(=N/C(=O)c1ccc(F)cc1)Nc1cc(-c2ccc(F)cc2)n[nH]1)C1CCCO1 (stereo not shown)", "F1F0-ATPase (Bos taurus, UniProt P13621)", "> 10 µM"],
  ["CS(=O)(=O)Nc1cccc(N/C(=N\\C(=O)c2ccc(F)c(F)c2)Nc2cccc(C(F)(F)F)c2)n1", "F1F0-ATPase (Bos taurus, UniProt P13621)", "< 10 µM"],
  ["O=C(/N=C(\\Nc1cc(-c2ccc(Cl)cc2)n[nH]1)NC1CCCC1)c1ccc(F)cc1", "F1F0-ATPase (Bos taurus, UniProt P13621)", "< 10 µM"],
  ["C[C@@H](N/C(=N\\C(=O)c1ccc(F)c(F)c1)Nc1cc(C(F)(F)F)n[nH]1)C1CCCCC1", "F1F0-ATPase (Bos taurus, UniProt P13621)", "< 10 µM"],
  ["Cc1oncc1C(=O)/N=C(\\Nc1cc(-c2cc(F)cc(F)c2)n[nH]1)NC1(C)CCCC1", "F1F0-ATPase (Bos taurus, UniProt P13621)", "< 5 µM"],
  ["O=C(/N=C(/Nc1cc(C(F)(F)F)n[nH]1)NC1CCCC1)c1ccc(Cl)c(F)c1", "F1F0-ATPase (Bos taurus, UniProt P13621)", "< 10 µM"]
]}
